System: MDAMB468
Experiment: In vitro potency (IC50) of Palbociclib on breast cancer cell line
Assay type: cell-based
Conditions: Homo sapiens, MDA-MB-468, read-out: Observed IC50
property: IC50

Fill in: IC50 of CC(=O)c1c(C)c2cnc(Nc3ccc(N4CCNCC4)cn3)nc2n(C2CCCC2)c1=O [Palbociclib] is ___
> 1000 nM

Reference source: patent US20230343467A1
